# Test system: OVCAR-3
# test-summary: Cytotoxicity against human OVCAR-3 cells by sulforhodamine B assay
# Format: functional
experimental-readout: TGI (µM)

* CC1=CC[C@@H]([C@@](C)(O)CCCC(C)(C)NC(=S)N/N=C\c2ccc(Cl)cc2)CC1 | 12.8
* CC1=CC[C@@H]([C@@](C)(O)CCCC(C)(C)NC(=S)N/N=C\c2ccc(O)cc2)CC1 | 17.4
* CC1=CC[C@@H]([C@@](C)(O)CCCC(C)(C)NC(=S)N/N=C\c2ccccc2[N+](=O)[O-])CC1 | 16.2

* * *

# System: OVCAR-3
# test-summary: Cytotoxicity against human OVCAR-3 cells by sulforhodamine B assay
# Assay type: functional
The entries below are paired with their reported log10 of TGI.
experimental-readout: log10 of TGI (log10 of the value in µM)

* CC1=CC[C@@H]([C@@](C)(O)CCCC(C)(C)NC(=S)N/N=C\c2cccc(Cl)c2)CC1 | 1.42
* CC1=CC[C@@H]([C@@](C)(O)CCCC(C)(C)NC(=S)N/N=C(/C)c2ccccc2)CC1 | 1.77
* CC1=CC[C@@H]([C@@](C)(O)CCCC(C)(C)NC(=S)N/N=C\c2ccc([N+](=O)[O-])cc2)CC1 | 1.95
* CC1=CC[C@@H]([C@@](C)(O)CCCC(C)(C)NC(=S)N/N=C\c2cccc([N+](=O)[O-])c2)CC1 | 1.61
* COc1cccc2c1C(=O)c1c(O)c3c(c(O)c1C2=O)C[C@@](O)(C(=O)CO)C[C@@H]3O[C@H]1C[C@H](N)[C@H](O)[C@H](C)O1 [DOXORUBICIN] | 0.91

* * *

# Tested on: MCF7
# test-summary: Cytotoxicity against human MCF7 cells by sulforhodamine B assay
# Type: functional
# conditions-used: read-out: LC50 (the source's name)
experimental-readout: CC50

- CC1=CC[C@@H]([C@@](C)(O)CCCC(C)(C)NC(=S)NN=C(c2ccccc2)c2ccccc2)CC1: > 100 µM
- CC1=CC[C@@H]([C@@](C)(O)CCCC(C)(C)NC(=S)N/N=C\c2cccc([N+](=O)[O-])c2)CC1: 47.3 µM
- COc1ccc(/C=N\NC(=S)NC(C)(C)CCC[C@](C)(O)[C@@H]2CC=C(C)CC2)cc1: > 100 µM
- CC1=CC[C@@H]([C@@](C)(O)CCCC(C)(C)NC(=S)N/N=C\c2ccccc2Cl)CC1: > 100 µM

* * *

# System: OVCAR-3
# test-summary: Cytotoxicity against human OVCAR-3 cells by sulforhodamine B assay
# Type: functional
The entries below are paired with their reported TGI.
experimental-readout: TGI (µM)

• CC1=CC[C@@H]([C@@](C)(O)CCCC(C)(C)NC(=S)N/N=C\c2ccccc2)CC1 = 12.9
• CC1=CC[C@@H]([C@@](C)(O)CCCC(C)(C)NC(=S)N/N=C\c2ccc(C)cc2)CC1 = 11.8
• COc1ccc(/C=N\NC(=S)NC(C)(C)CCC[C@](C)(O)[C@@H]2CC=C(C)CC2)cc1 = 15.8

* * *

The entries below are paired with their reported TGI.
# test-summary: Cytotoxicity against human PCO3 cells by sulforhodamine B assay
# Format: functional
experimental-readout: TGI

* CC1=CC[C@@H]([C@@](C)(O)CCCC(C)(C)NC(=S)N/N=C\c2ccccc2[N+](=O)[O-])CC1 | > 100 µM
* CC(C)=CCC[C@](C)(O)[C@@H]1CC=C(C)CC1 [LEVOMENOL] | > 100 µM
* CC1=CC[C@@H]([C@@](C)(O)CCCC(C)(C)NC(=S)NN)CC1 | > 100 µM
